Where do these numbers come from? They come from patent US20220380801A1.

# MEASURED ON: HCV NS3/4A PR D168E/PRSIM_23 (Hepatitis C virus subtype 1a, UniProt A8DG50, D1194E/S1165A, form not given)
# TEST DESCRIPTION: Biacore 8K simeprevir titration of heterodimerisation
# CONDITION NOTES: read-out: EC50 of simeprevir for induction of heterodimerisation; D168E protease, immobilised PRSIM_23
QUANTITY NAME: pEC50
Scale explanation: pEC50 corresponds to minus log10 of a concentration expressed in moles per litre.

Summary for this molecule, COc1ccc2c(O[C@@H]3C[C@H]4C(=O)N[C@]5(C(=O)NS(=O)(=O)C6CC6)C[C@H]5/C=C\CCCCN(C)C(=O)[C@@H]4C3)cc(-c3nc(C(C)C)cs3)nc2c1C : pEC50 is 8.43

---

# MEASURED ON: HCV NS3/4A PR (S139A) (Hepatitis C virus subtype 1a, UniProt A8DG50, A1066T/I1043Q/I1044E/L1039E/L1040E/L1047Q/S1165A, form not given)
# TEST DESCRIPTION: Octet RED384 simeprevir affinity
# Format: binding
# CONDITION NOTES: WT (S139A)
QUANTITY NAME: pKd
Scale explanation: pKd corresponds to minus log10 of a concentration expressed in moles per litre.

Summary for this compound, COc1ccc2c(O[C@@H]3C[C@H]4C(=O)N[C@]5(C(=O)NS(=O)(=O)C6CC6)C[C@H]5/C=C\CCCCN(C)C(=O)[C@@H]4C3)cc(-c3nc(C(C)C)cs3)nc2c1C [simeprevir] : pKd is 7.75

---

# MEASURED ON: HCV NS3/4A PR (S139A)/PRSIM_57 (Hepatitis C virus subtype 1a, UniProt A8DG50, A1066T/I1043Q/I1044E/L1039E/L1040E/L1047Q/S1165A, form not given)
# TEST DESCRIPTION: Biacore 8K simeprevir titration of heterodimerisation
# Assay type: binding
# CONDITION NOTES: read-out: EC50 of simeprevir for induction of heterodimerisation; 40 nM HCV NS3/4A PR (S139A), immobilised PRSIM_57
QUANTITY NAME: EC50
Field note: include the unit after the figure.

Summary for this compound, COc1ccc2c(O[C@@H]3C[C@H]4C(=O)N[C@]5(C(=O)NS(=O)(=O)C6CC6)C[C@H]5/C=C\CCCCN(C)C(=O)[C@@H]4C3)cc(-c3nc(C(C)C)cs3)nc2c1C : EC50 is 4.57 nM

---

# MEASURED ON: HCV NS3/4A PR (S139A)/PRSIM_23 (Hepatitis C virus subtype 1a, UniProt A8DG50, A1066T/I1043Q/I1044E/L1039E/L1040E/L1047Q/S1165A, form not given)
# TEST DESCRIPTION: Biacore 8K simeprevir titration of heterodimerisation
# Format: binding
# CONDITION NOTES: read-out: EC50 of simeprevir for induction of heterodimerisation; 40 nM ‘WT’ (S139A) protease, immobilised PRSIM_23; listed as Simeprevir
QUANTITY NAME: pEC50
Scale explanation: pEC50 corresponds to minus log10 of a concentration expressed in moles per litre.

Summary for this compound, COc1ccc2c(O[C@@H]3C[C@H]4C(=O)N[C@]5(C(=O)NS(=O)(=O)C6CC6)C[C@H]5/C=C\CCCCN(C)C(=O)[C@@H]4C3)cc(-c3nc(C(C)C)cs3)nc2c1C [simeprevir] : pEC50 is 8.39

---

# MEASURED ON: HCV NS3/4A K136N PR (Hepatitis C virus subtype 1a, UniProt A8DG50, A1066T/I1043Q/I1044E/K1162N/L1039E/L1040E/L1047Q/S1165A, form not given)
# TEST DESCRIPTION: Octet RED384 simeprevir affinity
QUANTITY NAME: pKd
Scale explanation: pKd corresponds to minus log10 of a concentration expressed in moles per litre.

Summary for this compound, COc1ccc2c(O[C@@H]3C[C@H]4C(=O)N[C@]5(C(=O)NS(=O)(=O)C6CC6)C[C@H]5/C=C\CCCCN(C)C(=O)[C@@H]4C3)cc(-c3nc(C(C)C)cs3)nc2c1C : pKd is 7.50
